tested on: Es-2; test: Primary qHTS to identify gynecologic anti-cancer compounds using libraries of approved drugs and bioactive compounds (AID 1345084); conditions: Gynecologic cancer cell panel viability, ATPlite luminescence, 48 h; series mostly up to 57.5 µM; also: nearly all actives have a fitted effect of over 55% in size
Results filed as inconclusive are left out. Active and inactive are the calls of the source. Calls follow the shape of the dose curve; as a rule, active = well fitted cell-killing curve with a large enough effect; inconclusive = small, poorly fitted or top-dose-only effect, or effect the other way; inactive = flat fitted curve, though single readings scatter.
Classes used: active, inactive

{"compound": "Cc1c(Cn2c(C)nc3c(C(=O)O)cc(N4CCOCC4)cc32)cccc1C(F)(F)F", "label.class": "inactive"}
{"compound": "CNC(=O)c1ccc(-c2cnc3ncc(Cc4ccc5ncccc5c4)n3n2)cc1F", "label.class": "inactive"}
{"compound": "COc1cc(C(=O)NS(=O)(=O)c2ccccc2C)ccc1Cc1cn(C)c2ccc(NC(=O)OC3CCCC3)cc12", "label.class": "inactive"}
{"compound": "O=C1CCC[C@@H]2[C@H]3CCC[N+]4([O-])CCC[C@@H](CN12)[C@@H]34 (some centres undefined)", "label.class": "inactive"}
{"compound": "C=CCn1c(=O)c2cnc(Nc3ccc(N4CCN(C)CC4)cc3)nc2n1-c1cccc(C(C)(C)O)n1", "label.class": "active"}
{"compound": "NC1(Cc2ccc(Cl)cc2)CCN(c2ncnc3[nH]ccc23)CC1", "label.class": "inactive"}
{"compound": "Cc1cn(-c2cc(NC(=O)c3ccc(C)c(Nc4nccc(-c5cccnc5)n4)c3)cc(C(F)(F)F)c2)cn1", "label.class": "inactive"}
{"compound": "Nc1ccccc1NC(=O)c1ccc(CNc2nccc(-c3cccnc3)n2)cc1", "label.class": "active"}
{"compound": "CC(C)Nc1cc(C(F)(F)F)cc2nc(NC(=O)c3cccnc3)nn12", "label.class": "inactive"}
{"compound": "CC[C@@H]1C(=O)N(C)c2cnc(Nc3ccc(C(=O)NC4CCC(N5CCN(CC6CC6)CC5)CC4)cc3OC)nc2N1C(C)C (some centres undefined)", "label.class": "active"}
{"compound": "CNC(=O)c1ccc(N2C(=S)N(c3cnc(C#N)c(C(F)(F)F)c3)C(=O)C23CCC3)cc1F", "label.class": "inactive"}
{"compound": "CC[C@@]1(O)C(=O)OCc2c1cc1n(c2=O)Cc2cc3cc(O)ccc3nc2-1", "label.class": "active"}
{"compound": "CN(C1CCc2c(c3ccccc3n2CC(=O)O)C1)S(=O)(=O)c1ccc(F)cc1 (centres undefined)", "label.class": "inactive"}
{"compound": "COc1ccc2c(OCc3nnc4ccc(-c5ccccc5)nn34)ccnc2c1", "label.class": "inactive"}
{"compound": "N#Cc1c(O)c2c(-c3ccc(-c4ccccc4O)cc3)csc2[nH]c1=O", "label.class": "inactive"}
{"compound": "COc1cc2c(Oc3ccc4[nH]c(C)cc4c3F)ncnc2cc1OCCCN1CCCC1", "label.class": "inactive"}
{"compound": "CCCn1c(=O)c2[nH]c(-c3cnn(Cc4cccc(C(F)(F)F)c4)c3)nc2n(CC)c1=O", "label.class": "inactive"}
{"compound": "CC1COC2(CCN(c3nc(=O)c4cc(C(F)(F)F)cc([N+](=O)[O-])c4s3)CC2)O1 (centres undefined)", "label.class": "inactive"}
{"compound": "COc1cc2nccc(Oc3ccc(NC(=O)C4(C(=O)Nc5ccc(F)cc5)CC4)cc3)c2cc1OC", "label.class": "inactive"}

* * *

experiment: qHTS Screen of the MIPE 4.0 Collection Against Ewings Sarcoma (EW8) (AID 1259255); conditions: EW8 Ewing sarcoma viability, CellTiter-Glo, 48 h; series mostly up to 45.8 µM; also: potency is read from the fitted curve at half-maximal effect; nearly all actives have a fitted effect of over 35% in size
Records with an inconclusive call do not appear. Activity calls are given as the source filed them. Calls come from the whole dose curve; as a rule, active = well fitted inhibition curve with a large enough effect; inconclusive = small, poorly fitted or top-dose-only effect; inactive = no such curve, though single readings can be large or run the other way.
Recorded Potency by entry
assay.endpoint: Potency

{"chemical.structure": "C=C1C(=CC=C2CCC[C@]3(C)[C@@H]([C@H](C)C=C[C@H](C)C(C)C)CC[C@@H]23)C[C@@H](O)C[C@@H]1O", "observed.value": "2350 nM (active)"}
{"chemical.structure": "Nc1ccccc1NC(=O)c1ccc(CNC(=O)OCc2cccnc2)cc1", "observed.value": "2350 nM (active)"}
{"chemical.structure": "C[C@@H](Oc1cc(-n2cnc3ccc(CN4CCN(C)CC4)cc32)sc1C(N)=O)c1ccccc1C(F)(F)F", "observed.value": "74.3 nM (active)"}
{"chemical.structure": "COc1cc2c(Oc3ccc(-c4cnc(Nc5ccc(F)cc5)n(C)c4=O)cc3F)ccnc2cc1OCCCN1CCOCC1", "observed.value": "18700 nM (active)"}
